- study_system: fMet-Leu-Phe receptor (Homo sapiens)
- method: Agonist activity at human FPR1 expressed in CHO cells assessed as increase in calcium flux incubated for 50 mins by FLIPR calcium 5 dye based fluorescence assay
- Format: cell-based
pEC50: −log10 of the molar value.
metric_name: pEC50

                                   compound  metric_name  quantitative_readout
0  COc1cc(F)c([C@H]2CCN(CCC(F)F)C[C@@H]2NC(=O)Nc2ccc(Cl)cc2)c(F)c1 (relative stereo; form 1)        pEC50                  9.00
1  COc1cc(F)c([C@H]2CCN(CC3CC3)C(=O)[C@@H]2NC(=O)Nc2ccc(Cl)cc2)c(F)c1        pEC50                  9.00
2  COc1ccc([C@H]2CCN(Cc3ccccn3)C(=O)[C@@H]2NC(=O)Nc2ccc(F)cc2)cc1 (relative stereo)        pEC50                  9.00
3  COc1ccc([C@@H]2CCN(Cc3ccccn3)C(=O)[C@@H]2NC(=O)Nc2ccc(F)cc2)cc1 (relative stereo)        pEC50                  9.00
4  COc1ccc([C@H]2CCN(c3ccnnc3)C[C@@H]2NC(=O)Nc2ccc(Cl)cc2)cc1 (relative stereo)        pEC50                  9.00
5  COc1ccc([C@H]2CCN(Cc3cccnc3)C(=O)[C@@H]2NC(=O)Nc2ccc(F)cc2)cc1 (relative stereo)        pEC50                  9.00

* * *

- study_system: fMet-Leu-Phe receptor (Homo sapiens, UniProt P21462)
- Sequence (P21462 whole entry): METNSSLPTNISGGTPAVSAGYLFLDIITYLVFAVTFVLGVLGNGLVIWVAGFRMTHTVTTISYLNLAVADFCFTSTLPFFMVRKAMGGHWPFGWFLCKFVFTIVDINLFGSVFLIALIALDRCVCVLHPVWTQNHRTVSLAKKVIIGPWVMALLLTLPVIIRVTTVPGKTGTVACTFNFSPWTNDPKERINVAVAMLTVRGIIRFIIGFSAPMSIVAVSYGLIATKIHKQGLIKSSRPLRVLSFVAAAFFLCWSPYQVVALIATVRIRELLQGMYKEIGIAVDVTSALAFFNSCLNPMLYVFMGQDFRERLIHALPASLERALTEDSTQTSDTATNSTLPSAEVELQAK
- method: Agonist activity at human recombinant FPR1 stably transfected in Flp-In-CHO cells assessed as ERK1/2 phosphorylation incubated for 1 hr by Alphascreen fluorescence assay
- Type: cell-based
Listing: EC50 of selected molecules
metric_name: EC50 (nM)

In [3]: df
Out[3]:
                                   molecule  metric_name  units_of_measure  quantitative_readout
0  COc1cccc(Cc2cc(C)nn([C@H](C)C(=O)Nc3ccc(Cl)cc3)c2=O)c1         EC50                nM                   794
1  COc1cccc(Cc2cc(C)nn(C(C)C(=O)Nc3ccc(Cl)cc3)c2=O)c1 (racemic)         EC50                nM                  1000
2  COc1cccc(Cc2cc(C)nn([C@@H](C)C(=O)Nc3ccc(Cl)cc3)c2=O)c1         EC50                nM                  1260

* * *

- study_system: N-formyl peptide receptor 2 (Homo sapiens)
- Sequence (P25090 whole entry): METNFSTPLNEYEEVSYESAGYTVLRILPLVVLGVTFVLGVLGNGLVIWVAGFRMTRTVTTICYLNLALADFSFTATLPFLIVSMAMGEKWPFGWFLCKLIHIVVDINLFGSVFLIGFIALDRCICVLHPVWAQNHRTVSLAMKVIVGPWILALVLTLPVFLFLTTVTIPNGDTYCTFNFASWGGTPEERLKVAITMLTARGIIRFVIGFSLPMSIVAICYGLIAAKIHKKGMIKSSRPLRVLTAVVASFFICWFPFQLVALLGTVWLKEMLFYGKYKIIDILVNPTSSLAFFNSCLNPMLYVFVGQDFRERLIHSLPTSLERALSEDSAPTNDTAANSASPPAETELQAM
- method: Agonist activity at human FPR2 transfected in HL-60 cells assessed as increase in intracellular calcium flux incubated for 30 mins by Fluo-4 AM dye based fluorometer analysis
- Type: cell-based
- condition_details: hl-60; read-out: EC50
pEC50: −log10 of the molar value.
metric_name: pEC50

                            compound_smiles  quantitative_readout
0  COc1ccc(NC(=O)N[C@H](Cc2ccc(O)cc2)C(=O)NCC2(c3ccccc3)CC2)cc1                  6.39

* * *

- study_system: N-formyl peptide receptor 2 (Homo sapiens, UniProt P25090)
- Sequence (P25090 whole entry): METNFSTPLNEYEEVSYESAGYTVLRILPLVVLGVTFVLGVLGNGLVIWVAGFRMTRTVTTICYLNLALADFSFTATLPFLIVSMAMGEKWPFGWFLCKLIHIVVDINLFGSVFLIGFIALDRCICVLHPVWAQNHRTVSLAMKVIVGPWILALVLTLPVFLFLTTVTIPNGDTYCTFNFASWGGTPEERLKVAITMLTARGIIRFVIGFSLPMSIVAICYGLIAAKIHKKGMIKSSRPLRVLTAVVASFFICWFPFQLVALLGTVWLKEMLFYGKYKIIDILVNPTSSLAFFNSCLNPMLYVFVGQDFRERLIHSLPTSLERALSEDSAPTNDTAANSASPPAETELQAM
- method: Agonist activity at human FPR2 expressed in CHO cells assessed as cAMP level incubated for 1.5 hr by HTRF assay
- Format: cell-based
pEC50: −log10 of the molar value.
Binary classification by pEC50, with 8 as an inclusive lower bound for criterion met; all other cases are criterion not met.

>>> df
                                    molecule  qualitative_label
 0  O=C(Nc1ccc(C(F)(F)F)cc1)N[C@@H]1CCCN(c2ccc(N3CCOCC3)cc2)C1=O      criterion met
 1  NC(=O)c1ccccc1-c1ccc(N2CCC[C@@H](NC(=O)Nc3ccc(C(F)(F)F)cc3)C2=O)cc1      criterion met
 2  NC(=O)c1ccccc1-c1ccc(N2CCC[C@@H](NC(=O)Nc3ccc(Cl)cc3)C2=O)cc1      criterion met
 3  NC(=O)c1ccccc1-c1ccc(N2CCCC(NC(=O)Nc3ccc(C(F)(F)F)cc3)C2=O)cc1 (racemic)  criterion not met
 4  NC(=O)c1ccccc1-c1ccc(N2CCC[C@H](NC(=O)Nc3ccc(C(F)(F)F)cc3)C2=O)cc1  criterion not met
 5  O=C(Nc1ccc(C(F)(F)F)cc1)N[C@@H]1CCCN(c2ccc(-c3ccccc3C(=O)O)cc2)C1=O      criterion met
 6  CP(C)(=O)c1ccccc1-c1ccc(N2CC[C@@H](NC(=O)Nc3csc(Cl)c3)C2=O)c(F)c1F      criterion met
 7  COc1cc(F)c([C@@H]2CNC(=O)[C@H]2NC(=O)NC2(c3cccc(C)n3)CC2)c(F)c1      criterion met
 8  O=C(Nc1ccc(C(F)(F)F)cc1)N[C@@H]1CCCN(c2ccc(-c3ccccc3F)cc2)C1=O      criterion met
 9  O=C(Nc1ccc(C(F)(F)F)cc1)NC1CCCN(c2ccc(-c3ccccc3F)cc2)C1=O (racemic)      criterion met
10  O=C(Nc1ccccc1F)N[C@@H]1CCCN(c2ccc(-c3ccccc3F)cc2)C1=O  criterion not met
11  CP(C)(=O)c1ccccc1-c1ccc(N2CC[C@@H](NC(=O)Nc3ccc(Cl)cc3)C2=O)c(F)c1F  criterion not met
12  CS(=O)(=O)Nc1ccccc1-c1ccc(N2CCC[C@@H](NC(=O)Nc3ccc(C(F)(F)F)nc3)C2=O)cc1      criterion met
13  COc1cc(F)c([C@@H]2CN(CC3CC3)C(=O)[C@H]2NC(=O)NC2(c3cccc(C)n3)CC2)c(F)c1      criterion met
14  CS(=O)(=O)Nc1ccccc1-c1ccc(N2CCC[C@@H](NC(=O)Nc3cnc(Cl)cn3)C2=O)cc1      criterion met

* * *

The following compounds are listed with their measured EC50 values.
- study_system: UniProtKB P25090
- method: Agonist activity at FPR2 (unknown origin) expressed in CHO/Galpha16 cells assessed as increase in calcium flux by FLIPR assay
- Assay type: cell-based
metric_name: EC50

                                   compound  metric_name   result
0  CC(C)C(C(=O)O)C(C)NC(=O)Nc1ccc(Br)cc1 (stereo in doubt; 20)         EC50  9940 nM
1  CC(C)C(C(=O)O)C(C)NC(=O)Nc1ccc(Br)cc1 (stereo in doubt; 19)         EC50  3240 nM
2  CC(C)C(C(=O)O)C(C)NC(=O)Nc1ccc(Br)cc1 (stereo in doubt; 18)         EC50   855 nM
3  CC(C)C(C(=O)O)C(C)NC(=O)Nc1ccc(Br)cc1 (stereo in doubt; 21)         EC50    25 nM

* * *

- study_system: N-formyl peptide receptor 2 (Homo sapiens)
- method: Agonist activity at FPR2 (unknown origin) expressed in CHO/Galpha16 cells assessed as maximal calcium flux at 0.61 to 10000 nM by FLIPR assay relative to control
- Assay type: cell-based
- condition_details: dose 0.61-10000 nM
Overview of recorded Emax for various molecules
metric_name: Emax (%)

>>> print(df.to_string())
                                   molecule  metric_name  units_of_measure  quantitative_readout
0  CC(C)C(C(=O)O)C(C)NC(=O)Nc1ccc(Br)cc1 (stereo in doubt; 20)         Emax                 %                    75
1  CC(C)C[C@H](NC(=O)CCNC(=O)Nc1ccc(Br)cc1)C(=O)O         Emax                 %                    81
2  CC(C)C(C(=O)O)C(C)NC(=O)Nc1ccc(Br)cc1 (stereo in doubt; 19)         Emax                 %                    56
3  CC(C)C[C@H](NC(=O)CNC(=O)Nc1ccc(Br)cc1)C(=O)O         Emax                 %                    91
4  CCC[C@H](NC(=O)CNC(=O)Nc1ccc(Br)cc1)C(=O)O         Emax                 %                   105
5  O=C(CNC(=O)Nc1ccc(Br)cc1)N[C@@H](Cc1ccccc1)C(=O)O         Emax                 %                   197
6  CC(C)C(C(=O)O)C(C)NC(=O)Nc1ccc(Br)cc1 (stereo in doubt; 18)         Emax                 %                    89

Values were extracted from ChEMBL document CHEMBL5233265.
